System: T-47D breast
runDescription: NCI-60 one-dose screen, 48 h
statedConditions: 10 µM unless noted
The panel holds about 83,000 compounds, 20% with a hit somewhere; the sample as a whole holds those more often. Calls of active or inactive are those of the source. The calls were made as follows: active = growth percent below 10; inactive = the rest.
Outcomes: True (active), False (inactive)

1. Cn1cc(-c2nnc(-c3cn(C)c4ncccc34)o2)c2ccccc21 = False
2. COc1ccc(N(c2nc(-c3ccc([N+](=O)[O-])cc3)cs2)C(C)C)cc1 = False
3. Nc1nc(Nc2ccccc2)c2ncn(Cc3ccc4c(c3)OCO4)c2n1 = False
4. C=C(C)[C@@H]1CC[C@]2(C(N)=O)CC[C@]3(C)[C@H](CC[C@@H]4[C@@]5(C)C/C(=C/c6cccnc6)C(=O)C(C)(C)[C@@H]5CC[C@]43C)[C@@H]12 = True
5. Nc1ccc2c(c1)Cc1cc(NC(=O)C(F)(F)F)ccc1-2 = False
6. CCOC(=O)c1ccc2nc(-c3c(C)nn(-c4ccccc4)c3N3CCOCC3)[nH]c2c1 = False
7. COC(=O)C(=Cc1ccccc1[N+](=O)[O-])C(=O)OC = False
8. CC(C)c1ccc(/C=N/N=C(N)N)cc1 = False
9. CCCCCC1CCCCN1C(=O)OCCCC (centres undefined) = False
10. O=C(N[C@@H]1CCCc2ccccc21)[C@H](CCC(=O)N1CCN(C2CCCCC2)CC1)N1C(=O)[C@@H](N2C(=O)OC[C@@H]2c2ccccc2)[C@H]1/C=C/c1ccccc1 = False
11. COc1cc(Cl)cc(-c2nn(C(=O)NS(=O)(=O)c3ccccc3)cc2-c2ccncc2)c1 = False
12. CC(C)CCSC1=CC(=O)c2ccccc2C1=O = True
13. O=C(Nc1ccc(CN2CCOCC2)c(C(F)(F)F)c1)c1nc2ccc3[nH]ncc3c2c2c1CCCC2 = False
14. CCOC(=O)c1nn(C2CCCCO2)c2ccc(NS(=O)(=O)c3ccc(C)cc3)cc12 (centres undefined) = False

###

Tested on: IGROV1 ovarian
runDescription: NCI-60 one-dose screen, 48 h
statedConditions: 10 µM unless noted
Compounds without any hit were thinned out: in the full panel of roughly 83,000, 20% have a hit. Calls of active or inactive are those of the source. How the source made its calls: active means growth percent below 10; inactive means the rest.
Outcome codes: y (active), n (inactive)

1) C[C@]12CCc3nc(Nc4ccccc4)sc3C1=CC[C@@H]1[C@@H]2CC[C@]2(C)/C(=N/NC(N)=S)CC[C@@H]12 = n
2) COc1ccc(-c2cc(-c3ccc(Cl)cc3)nc(NCCCCNc3ccnc4cc(Cl)ccc34)n2)cc1 = n
3) C#C[C@]1(O)CC[C@H]2[C@@H]3CC=C4c5nc(Nc6ncccn6)sc5CC[C@]4(C)[C@H]3CC[C@@]21C = n
4) COCCCNc1nc(NC(=O)c2cc(Br)cc(C(F)(F)F)c2)cc(-c2cccnc2)n1 = n
5) CC(C)C1=NOC(=O)C1=Cc1cn(-c2ccco2)nc1-c1ccccc1 = n
6) NNC(=O)c1ccc(C(=O)NN)cc1 = n
7) CC1(C)NCCC[C@]2(C)[C@H]3C=CC4=C5C[C@](C)(CO)CC[C@]5(C)CC[C@@]4(C)[C@]3(C)CC[C@@H]12 = y
8) CC(C)c1ccc(C(=O)Nc2sc3c(c2C#N)CCC(=O)C3)cc1 = n
9) CCN(CC)CC(C)Nc1ccc(C)c2sc3ccccc3c(=O)c12 (stereo not given) = n
10) NC(=S)Cc1ccccc1 = n
11) CSc1nc(=S)c2nc(SC)n(-c3ccccc3)c2[nH]1 = n
12) CCN(CC)CCCCCCNc1cccc2cc(Br)cnc12 = n
13) CC[C@]1(O)CC2CN(CCc3c([nH]c4ccccc34)[C@@](C(=O)OC)(c3cc4c(cc3OC)N(C=O)[C@H]3[C@@](O)(C(=O)OC)[C@H](OC(C)=O)[C@]5(CC)C=CCN6CC[C@]43[C@@H]65)C2)C1 (stereo not given in full) = n
14) CC(C)=CC/C=C(/C)[C@H]1CC[C@]2(C)[C@@H]1CC[C@@H]1[C@@]3(C)CCCNC(C)(C)[C@@H]3CC[C@]12C = y
15) CC(C)(C)c1cc(C(=O)Nc2ccc(C(=O)NCCN)cc2)cc(C(C)(C)C)c1 = n

###

growth overview
Test system: MOLT-4 leukemia
runDescription: NCI-60 one-dose screen, 48 h (100 = growth as untreated, 0 = no growth, -100 = all killed)
statedConditions: 10 µM unless noted
About 83,000 compounds went through this panel and 20% of them were active in at least one assay; those are over-represented in the sample as a whole.
measurementKind: growth (%)

1. Cn1cc(-c2nnc(-c3cn(C)c4ncc(Br)cc34)o2)c2ccccc21 = 93.6
2. Cn1cc(-c2nnc(-c3ccccc3)s2)c2cc(Br)cnc21 = 83.4
3. Nn1c(Nc2ccc(S(=O)(=O)Nc3ncccn3)cc2)nnc(/C=C/c2c(O)ccc3ccccc23)c1=O = 70.7
4. COc1ccc(-c2cc(-c3ccccc3)nc(SCCCCCC(=O)NO)n2)cc1 = 9.24
5. O=C(Nc1ccc(CN2CCOCC2)c(C(F)(F)F)c1)c1nc2ccc3[nH]ncc3c2c2c1CCCC2 = 76.3
6. CCN=Cc1c(O)c(O)c(C(C)C)c2cc(C)c(-c3c(C)cc4c(C(C)C)c(O)c(O)c(C=NCC)c4c3O)c(O)c12 = 32.8
7. CCN(CC)CCCOc1ccc2c(c1)O/C(=C\c1cccc(OC)c1)C2=O = 97.7
8. Cc1cc[n+](CCCCCCCCCC[n+]2ccc(C)cc2)cc1 = 83.5

###

System: MOLT-4 leukemia
runDescription: NCI-60 one-dose screen, 48 h
statedConditions: 10 µM unless noted
Compounds without any hit were thinned out: in the full panel of roughly 83,000, 20% have a hit. Active and inactive are the calls of the source. Rule for the calls: active = growth percent below 10; inactive = the rest.
Classes used: active, inactive

1. CCN1c2ccccc2C(Cl)(c2ccc(N(C)C)cc2)c2ccccc21 = inactive
2. Cn1ncc2c(Nc3ccc(O)cc3)nc(Cl)nc21 = inactive
3. CC1=CC[C@@H]2C(C)(C)[C@@H](O)CC[C@@]2(C)[C@@H]1COc1ccc2ccc(=O)oc2c1 = inactive
4. C=C(C)[C@@H]1CC[C@]2(C(N)=O)CC[C@]3(C)[C@H](CC[C@@H]4[C@@]5(C)C/C(=C/c6cccnc6)C(=O)C(C)(C)[C@@H]5CC[C@]43C)[C@@H]12 = active
5. CC(C)c1ccc(C(=O)Nc2nc3ccc(O)cc3s2)cc1 = inactive
6. O=C(Nc1cc(-c2cccnc2)nc(NCCCN2CCOCC2)n1)c1cc(Br)cc(C(F)(F)F)c1 = inactive
7. Cc1ncc(C(=O)Nc2ccc(CN3CCN(C)CC3)c(C(F)(F)F)c2)cc1C#Cc1c(N)ncc2ccc(C#N)cc12 = inactive
8. O=C(Nc1ccc(Cl)c(C(F)(F)F)c1)Nc1ccc(-c2cccnc2)cc1N1CCC(CO)CC1 = active
9. CCCc1cc2cc(-n3nc(C)c4c3CC(C)(C)CC4=O)cc(NC3CCSCC3)c2c(=O)[nH]1 = inactive
10. COc1ccc(NCc2cn(-c3ccc(C(=O)O)cc3)nc2-c2ccc(C(=O)O)cc2)cc1C(F)(F)F = inactive

###

System: MDA-MB-231 breast
runDescription: NCI-60 one-dose screen, 48 h
statedConditions: 10 µM unless noted
Compounds without any hit were thinned out: in the full panel of roughly 83,000, 20% have a hit. Activity calls are given as the source filed them. How the source made its calls: active means growth percent below 10; inactive means the rest.
Possible outcomes: True = active, False = inactive

1. CC1(C)CC[C@]2(C(=O)O)CC[C@]3(C)[C@H](CC[C@@H]4[C@@]5(C)CCC(=O)C(C)(C)[C@@H]5CC[C@]43C)[C@H]2[C@H]1OC(=O)C(F)(F)F = True
2. COc1ccc2c3ccnc(C(F)(F)F)c3n(CCCCN)c2c1 = False
3. CCC(C)[C@H](NC(=O)NC(=O)NC(=O)CI)C(=O)OC (stereo not given in full) = False
4. O=C1CC(c2ccc3c(c2)OCO3)Nc2ccccc21 (stereo not given) = False
5. O=C(Nc1cccnc1)c1ccc2ccc3ccc(C(=O)Nc4cccnc4)nc3c2n1 = False
6. O=S(=O)(NCc1ccccc1)c1ncnc2nc[nH]c12 = False
7. Cn1cc(-c2noc(-c3cn(C)c4ncc(Br)cc34)n2)c2cc(Cl)ccc21 = False
8. CC1=CC[C@@H]2C(C)(C)C(=O)CC[C@@]2(C)[C@@H]1COc1ccc2ccc(=O)oc2c1 = False
9. CC1Cc2c(Cl)ncnc2N(C)c2ccc(Cl)cc21 (stereo not given) = True
10. O=c1cc(-c2ccccc2)oc2cc(OCc3cn(Cc4ccc(F)cc4)nn3)cc(O)c12 = False
11. COc1ccc(C2NC(=O)C(C#N)c3c2sc2c(F)cccc32)cc1 (stereo not given) = False
12. COc1ccc(-c2nc3ccccn3c2/C=C/C(=O)c2cc(OC)c(OC)c(OC)c2)cc1OC = False
13. Cc1ccc(-c2cc(O)c(-c3ccc(C)cc3C)cc2O)c(C)c1 = False
14. C=CCCCCOc1ccccc1-c1cnc(OCCCCC=C)n1C = False
15. O=[N+]([O-])c1cc(CCl)ccc1OCCBr = False
